Molecular target: Hexose transporter 1 (Plasmodium falciparum) (UniProt O97467)
Assay: ST_JUDE_LEISH: Cytotoxicity at 2uM final concentration against transgenic Leishmania Mexicana promastigotes LmPfHT that are glucose transport deficient and complemented with the Plasmodium falciparum hexose transporter. Activity is measured by DNA content using SYBR green in vitro
Format: functional
Recorded inhibition values for a group of compounds are listed next.
Record the value in %, omitting the unit from your answer.

COMPOUND | U | inhibition
c1cc(CNC2Cc3ccc(-c4cccs4)cc3C2)cc(-n2ccnc2)c1 (centres undefined) | % | 0.43

Fill in: inhibition of "O=C(NC1CCN(Cc2ccccc2)CC1)c1cccc(-c2nc3ccc(Cl)cc3[nH]2)c1" is ___ 2.61

Input COc1ccc(-c2ccc(NC(=O)c3cccc(C#N)c3)cc2)cc1CN1CCCC(C(N)=O)C1 (centres undefined) 2.51

Input "CCCCCCN1CCC(NCc2ccc(Cl)cc2)CC1" 7.61

Input "CC1(C)NC(N)=NC(=N)N1OCc1nc(N)nc(Nc2ccccc2)n1" 5.4

Input "Cc1ccc(NC(=O)c2ccc(-c3cc4cc(Cl)c(Cl)cc4[nH]3)cc2)cc1OCCN1CCCC1" -0.67

Input "CC(C)(C)c1ccc(OCCCON2C(=N)N=C(N)NC2(C)C)c(C(C)(C)C)c1" 0.14

Input "Cc1cccc2nc(-c3ccc(-c4ccc(C(=O)NCCN5CCCC5)cc4)s3)[nH]c12" 0.54

Input "COc1cc(NC(=O)c2nn(CCCN3CCC(N4CCCC4)CC3)cc2-c2ccc(Cl)c(Cl)c2)cc(OC)c1OC" 2.09

Input "COc1cccc(NC(=O)[C@H](C(C)C)n2c(=O)[nH]c3ccccc3c2=O)c1" 0.97

Input "O=C(/C=C/c1ccc(-c2nc3ccc(Cl)cc3[nH]2)cc1)NCc1cccc(F)c1" 4.66

---

Recorded inhibition values for a group of molecules are listed next.
Target: Hexose transporter 1 (Plasmodium falciparum) (UniProt O97467)
Assay: ST_JUDE_LEISH: Cytotoxicity at 2uM final concentration against transgenic Leishmania Mexicana promastigotes LmPfHT that are glucose transport deficient and complemented with the Plasmodium falciparum hexose transporter. Activity is measured by DNA content using SYBR green in vitro
Assay type: functional
Record the value in %, omitting the unit from your answer.

MOLECULE | U | inhibition
N#CN1CC[C@@H](NS(=O)(=O)Cc2ccc(Cl)c(Cl)c2)C1 | % | 4.08

Can you look up inhibition on Hexose transporter 1 (Plasmodium falciparum) (UniProt O97467) for "CCOC(=O)c1c(SCc2cccc(F)c2F)[nH]c2ccccc2c1=O" ? -0.99

Input "CCNc1cc(C(=O)N[C@@H](Cc2ccc(F)c(F)c2)[C@H](O)CNC2CCCCC2)cc(N2CCCCS2(=O)=O)c1" 0.24

Input COc1cc(C(=O)N2CCC(CCN3CCC4(CC3)CN(S(C)(=O)=O)c3ccccc34)CC2Cc2ccc(Cl)c(Cl)c2)cc(OC)c1OC (stereo not given) 4.25

Input O=C(Oc1ccc(C2CNCCc3c2cc(OC(=O)c2ccc(O)cc2)c(OC(=O)c2ccc(O)cc2)c3Cl)cc1)c1ccc(O)cc1 (stereo not given) 5.32

---

Biological target: Hexose transporter 1 (Plasmodium falciparum)
Assay: ST_JUDE_LEISH: Cytotoxicity at 2uM final concentration against transgenic Leishmania Mexicana promastigotes LmPfHT that are glucose transport deficient and complemented with the Plasmodium falciparum hexose transporter. Activity is measured by DNA content using SYBR green in vitro
Format: functional
VALUE_TYPE: inhibition (%)
Record the value in %, omitting the unit from your answer.

Worked examples, 3 compounds total:
COMPOUND | TGT | inhibition, %
COc1ccc2nc(-c3ccccc3)cc(NCCCNc3cc(-c4ccccc4)nc4ccc(OC)cc34)c2c1 | Hexose transporter 1 (Plasmodium falciparum) | 2.6
CN1CCN(c2ccc(Nc3ncc(Cl)c(Nc4cccnc4C(N)=O)n3)cc2)CC1 | Hexose transporter 1 (Plasmodium falciparum) | 87.3
COc1ccc2ncc(F)c(NC(=O)C3CCC(NCc4cc5c(F)cccc5[nH]4)CC3)c2n1 (centres undefined) | Hexose transporter 1 (Plasmodium falciparum) | 80.8

Fill in: inhibition of "Cc1n[nH]c2ccc(-c3cc(OC[C@@H](N)Cc4ccccc4)cnc3-c3cc4ccccc4s3)cc12" is ___ 3.69

Input CC(=O)c1ccc(NC(=O)C2c3ccccc3C(=O)N(CC(C)C)C2c2cccs2)cc1 (centres undefined) 0.9

Input "O=C(Nc1ccc(-c2nc3ccccc3[nH]2)cc1)c1ccc(N2CCCC2)c([N+](=O)[O-])c1" 2.01

Input "O=C(Nc1ccc(-c2ccc(-c3nc4ccccc4[nH]3)cc2)cc1)Nc1ccc(Cl)c(Cl)c1" 2.21

Input "CN1CCN(c2ccnc3ccc(NC(=O)Cc4ccc(OCc5ccccc5)cc4)cc23)CC1" 7.76

Input "CCCCCOc1ccc(N2C(N)=NC(N)=NC2(C)C)cc1" 2.59

---

Recorded inhibition values for a group of compounds are listed next.
Target: Glucose transporter (Leishmania mexicana)
Assay: ST_JUDE_LEISH: Cytotoxicity at 2uM final concentration against transgenic Leishmania Mexicana promastigotes LmGT2 that are glucose transport deficient and complemented with the L. Mexicana glucose transporter 2. Activity is measured by DNA content using SYBR green in vitro
Assay type: functional
Your answer should be a number followed by the unit of measure.

Worked examples, 3 compounds total:
COMPOUND | inhibition
CC(=O)CCc1ccc(OCCN(Cc2ccccc2C(F)(F)F)c2ccc(C#N)c(C(F)(F)F)c2)cc1 | 2.73%
Nc1nccc2ccc(Oc3ccncc3)cc12 | 4.2%
CCC1CN2CCc3c([nH]c4ccccc34)C2CC1CC1=NCCc2c1[nH]c1ccccc21 (stereo not given) | 2.74%

Can you look up inhibition on Glucose transporter (Leishmania mexicana) for "CCNc1cc(C(=O)N[C@@H](Cc2ccccc2)[C@H](O)CNCc2cccc(OC)c2C)cc(N2CCCCS2(=O)=O)c1" ? 2.02%

Input "O=c1cc(NCCCNCc2ccc(C(F)(F)F)cc2F)[nH]c2ccccc12" -0.34%

---

Recorded inhibition values for a group of molecules are listed next.
Biological target: Glucose transporter (Leishmania mexicana) (UniProt O61059)
Test: ST_JUDE_LEISH: Cytotoxicity at 2uM final concentration against transgenic Leishmania Mexicana promastigotes LmGT2 that are glucose transport deficient and complemented with the L. Mexicana glucose transporter 2. Activity is measured by DNA content using SYBR green in vitro
Assay type: functional
Record the value in %, omitting the unit from your answer.

Worked examples, 3 molecules total:
MOLECULE | inhibition (%)
O=C(c1cccs1)N1N=C(c2cccs2)CC1c1cccc([N+](=O)[O-])c1 (stereo not given) | 7.21
Nc1cccc(CNCc2ccc(-c3cccc(-c4nc5ccccc5[nH]4)c3)cc2)c1 | -0.54
C(=N\Nc1nccc2sc(-c3cccnc3)cc12)/c1cccnc1 | 1.05

Can you look up inhibition on Glucose transporter (Leishmania mexicana) (UniProt O61059) for "CC(=O)Nc1ccc(CN(Cc2ccc(C)cc2)Cc2cccc(Oc3ccccc3)c2)cc1" ? 2.62

Input N#Cc1ccc2c(c1)CCN(CCC1CCC(NC(=O)Nc3ccncc3)CC1)C2 (stereo not given) 5.01

Input COc1ccc(C2C(C(=O)Nc3ccc(C)c(F)c3)c3cc(OC)c(OC)cc3C(=O)N2C)cc1 (stereo not given) 3.34

Input "COc1cc(-n2c(CN3CCCC3)nc3cc(-c4ccc(Cl)cc4)sc3c2=O)ccc1OCCN1CCCC1" 0.37

Input "O=C(Nc1cccc(-c2ccc(CN3CCCC3)cc2)c1)c1ccc(F)cc1" 0.64

---

Biological target: Hexose transporter 1 (Plasmodium falciparum) (UniProt O97467)
Test: ST_JUDE_LEISH: Cytotoxicity at 2uM final concentration against transgenic Leishmania Mexicana promastigotes LmPfHT that are glucose transport deficient and complemented with the Plasmodium falciparum hexose transporter. Activity is measured by DNA content using SYBR green in vitro
Assay type: functional
VALUE_TYPE: inhibition (%)
Record the value in %, omitting the unit from your answer.

Worked examples, 2 compounds total:
COMPOUND | inhibition, %
Oc1ccc(CN2CCC(NCc3cccc(C(F)(F)F)c3)CC2)cc1 | 13.7
COc1ccc(CCN(C)CCOc2ccc(NC(=O)c3cccc4c(=O)c5cc(SC)ccc5[nH]c34)cc2)cc1OC | 8.61

Can you look up inhibition on Hexose transporter 1 (Plasmodium falciparum) (UniProt O97467) for "Cc1cccc(C)c1CNc1cccc(-c2nc(C)c(C)[nH]2)c1" ? 4.77

Input "CC(=O)OC[C@H]1O[C@@H](C#Cc2ccccc2)[C@H](OC(C)=O)[C@@H](OC(C)=O)[C@@H]1OC(C)=O" 2.07

Input "O=C(Nc1ccc(Oc2ccccc2)cc1)N(Cc1ccc(-c2ccc(CN3CCNCC3)cc2)cc1)C1CCN(Cc2ccccc2)CC1" -1.14

Input "c1ccc(CCNc2ccnc(Nc3ccc4cn[nH]c4c3)n2)cc1" 14.8

Input "Cn1cccc1CCNCc1ccc(-c2cccc(-c3nc4ccccc4[nH]3)c2)cc1" 3.07

Input "CCCCCCCN(CCCCCCC)CCCC(=O)Nc1ccnc2ccc(OC)cc12" 1.31

Input "CC(=O)Nc1ccc(CN2CCC(NC(=O)c3ccc(-c4cccc(OC(C)C)c4)s3)CC2)cc1" 2.62

Input "CCN(CC)CCN(Cc1ccc(-c2ccc(C(F)(F)F)cc2)cc1)C(=O)Cn1c(CCc2cccc(F)c2F)nc(=O)c2ccccc21" 0.95

Input "CC1CCN(c2nc(C(=O)NCCc3ccc(Cl)c(Cl)c3)c(C(C)C)s2)CC1" 0.99

Input NC(=O)C1Cc2ccccc2CN1CC(=O)Nc1ccccc1Sc1ccccc1 (centres undefined) 2.07

Input "COC(=O)c1cccc(CNCc2cccc(-c3cccc(-c4nc5ccccc5[nH]4)c3)c2)c1" 3.05

Input "COc1cc2nc(N(C)Cc3cc4c(Cl)cccc4s3)nc(N)c2cc1OC" -1.7

Input CN(C)C(CNC(=O)c1cc(-c2ccncc2)c(-c2ccc(Cl)c(O)c2)o1)c1ccccc1 (centres undefined) 1.6

Input "N#Cc1cccc(NC(=O)NC2CCN(CCCCCNC(=O)/C=C/c3ccc(Cl)c(Cl)c3)CC2)c1" 5.86

Input "COC(=O)CC[C@H](NC(=O)[C@H](C)NC(=O)OC(C)(C)C)C(=O)OC" 0.48

Input "CCn1ccc2c(N3CCCCS3(=O)=O)cc(C(=O)N[C@@H](Cc3ccccc3)[C@H](O)CNC(C)(C)CCCC(C)C)cc21" 1.95

Input CCCC1N=C(N)N=C(N)N1c1ccc(CC)cc1 (centres undefined) 0.44
